Below: a set of entries, each annotated with reported cGMP conc [nM] at 1 uM IgG, +0.075 nM ANP.
# targetOrSystem: T1, human NPR1 expressed on CHO-K1 cells (human, UniProt P16066 33-1061)
# T1 sequence: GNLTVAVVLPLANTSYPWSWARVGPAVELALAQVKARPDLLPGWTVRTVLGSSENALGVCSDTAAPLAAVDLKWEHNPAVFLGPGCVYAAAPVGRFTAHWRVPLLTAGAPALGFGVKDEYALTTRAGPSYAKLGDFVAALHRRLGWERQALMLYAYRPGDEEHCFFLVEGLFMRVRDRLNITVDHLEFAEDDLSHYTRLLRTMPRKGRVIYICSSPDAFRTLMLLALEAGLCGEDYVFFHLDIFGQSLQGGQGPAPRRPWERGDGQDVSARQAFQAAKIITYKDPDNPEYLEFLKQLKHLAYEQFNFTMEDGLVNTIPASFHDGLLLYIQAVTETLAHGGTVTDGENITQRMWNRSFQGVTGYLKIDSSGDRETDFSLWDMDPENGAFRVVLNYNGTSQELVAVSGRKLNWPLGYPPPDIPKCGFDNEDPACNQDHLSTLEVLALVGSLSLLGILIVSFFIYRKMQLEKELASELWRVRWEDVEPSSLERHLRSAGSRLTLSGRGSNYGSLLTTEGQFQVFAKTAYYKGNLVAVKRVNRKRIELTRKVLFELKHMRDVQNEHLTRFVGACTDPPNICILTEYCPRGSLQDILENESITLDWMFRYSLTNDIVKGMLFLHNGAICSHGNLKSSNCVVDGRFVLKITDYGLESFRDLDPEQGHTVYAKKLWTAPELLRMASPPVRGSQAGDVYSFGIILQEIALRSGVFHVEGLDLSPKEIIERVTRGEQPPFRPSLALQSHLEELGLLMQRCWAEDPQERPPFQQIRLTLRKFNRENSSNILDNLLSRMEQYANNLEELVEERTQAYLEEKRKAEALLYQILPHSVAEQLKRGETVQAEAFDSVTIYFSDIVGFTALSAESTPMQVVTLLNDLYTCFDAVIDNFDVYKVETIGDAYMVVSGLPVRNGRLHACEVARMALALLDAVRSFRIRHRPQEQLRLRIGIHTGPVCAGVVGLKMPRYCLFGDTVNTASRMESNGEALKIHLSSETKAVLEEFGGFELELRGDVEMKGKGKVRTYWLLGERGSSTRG
# methodNotes: cell-based or functional assay
valueType: cGMP conc [nM] at 1 uM IgG, +0.075 nM ANP (nM)

binder="YY05 IgG (YY05_LALA) (antibody, V domains shown) VH: EVQLVQSGAEVKKPGESLKISCKGSGYSFTSYWISWVRQMPGKGLEWMGIIYPGTSYTRYSPSFQGQVTISADKSISTAYLQWSSLKASDTAMYYCARGAVAGQLGFDHWGQGTLVTVSS VL: QSVLTQPPSVSGAPGQRVTISCTGSSSNIGAGYDVHWYQQLPGTAPKLLIYGNSNRPSGVPDRFSGSKSGTSASLAITGLQAEDEADYYCQSYYTSSHGPVFGGGTKLTVLG" readoutvalue=15
binder="YY07 IgG (YY07_LALA) (antibody, V domains shown) VH: EVQLVQSGAEVKKPGESLKISCKGSGYSFTSYWISWVRQMPGKGLEWMGIIYPGTSYTRYSPSFQGQVTISADKSISTAYLQWSSLKASDTAMYYCARGSLPGLLGFDHWGQGTLVTVSS VL: QSVLTQPPSVSGAPGQRVTISCTGSSSNIGAGYDVHWYQQLPGTAPKLLIYGNSNRPNGVPDRFSGSKSGTSASLAITGLQAEDEADYYCQSYDSPTSSSVFGGGTKLTVLG" readoutvalue=9
binder="YY06 IgG (YY06_LALA) (antibody, V domains shown) VH: EVQLLESGGGLVQPGGSLRLSCAASGFTFSSYAISWVRQAPGKGLEWVSAISGSGGSTYYAESVKGRFTISRDNSKNTLYLQMNSLRAEDTAVYYCARPYLGDRRSYGFDHWGQGTLVTVSS VL: QSALTQPASVSGSPGQSITISCTGTSSDVGSYNLVSWYQQHPGKAPKLMIYEGSKRPSGVSNRFSGSKSGNTASLTISGLQAEDEADYYCSSYGFHIVVVVFGGGTKLTVLG" readoutvalue=15
binder="YY01 IgG (YY01_LALA) (antibody, V domains shown) VH: EVQLVESGGGLVQPGGSLRLSCAASGFTFSSYWISWVRQAPGKGLEWVANIKQSGSETYYVESVKGRFTISRDNAKNSLYLQMNSLRAEDTAVYYCARSLRRRSTEHAGFDVWGQGTLVTVSS VL: DIQMTQSPSSLSASVGDRVTITCRASQGISNYLAWYQQKPGKVPKLLIYAASTLQSGVPSRFSGSGSGTDFTLTISSLQPEDVATYYCQQADKFPYTFGQGTKVEIKR" readoutvalue=14

These measurements were taken from patent US20200392225A1.
